meta.source: ChEMBL document CHEMBL1122801

Each entry below carries its recorded IC50.
- experimental system: Norepinephrine transporter (Rattus norvegicus, UniProt Q9WTR4)
- Sequence (Q9WTR4 whole entry): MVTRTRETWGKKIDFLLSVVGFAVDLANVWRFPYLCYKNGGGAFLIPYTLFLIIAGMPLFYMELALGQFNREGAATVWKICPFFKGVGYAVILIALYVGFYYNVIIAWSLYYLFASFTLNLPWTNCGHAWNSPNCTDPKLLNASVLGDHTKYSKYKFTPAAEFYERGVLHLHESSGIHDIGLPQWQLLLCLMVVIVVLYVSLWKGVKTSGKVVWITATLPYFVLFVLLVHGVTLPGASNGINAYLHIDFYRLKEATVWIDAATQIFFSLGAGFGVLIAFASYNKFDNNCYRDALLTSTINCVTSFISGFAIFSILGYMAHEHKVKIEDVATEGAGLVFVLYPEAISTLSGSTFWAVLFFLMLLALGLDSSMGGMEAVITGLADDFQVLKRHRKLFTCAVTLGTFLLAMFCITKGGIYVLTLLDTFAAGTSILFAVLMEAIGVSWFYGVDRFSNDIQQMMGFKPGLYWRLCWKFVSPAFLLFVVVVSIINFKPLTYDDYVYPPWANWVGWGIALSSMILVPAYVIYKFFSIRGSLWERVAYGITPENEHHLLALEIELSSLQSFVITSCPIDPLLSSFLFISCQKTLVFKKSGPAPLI
- method notes: Inhibition of norepinephrine uptake in synaptosomal preparation fro rat hypothalamus, using [3H]norepinephrine
Where a name gives a salt, the structure may show the parent alone.
readout type: IC50 (nM)

>>> test_result("CN[C@H]1CC[C@@H](c2ccc(Br)cc2)c2ccccc21")
1400
>>> test_result("CN[C@@H]1CC[C@@H](c2ccc(F)c(OC)c2)c2ccccc21")
340
>>> test_result("CN[C@H]1CC[C@@H](c2ccc(OC)cc2)c2ccccc21")
3000
>>> test_result("CN[C@@H]1CC[C@@H](c2ccccc2)c2ccccc21 (stereo in doubt; 45) [TAMETRALINE]")
370
>>> test_result("CN[C@@H]1CC[C@@H](c2ccc(OC)cc2)c2ccccc21")
150
>>> test_result("CN[C@@H]1CC[C@@H](c2ccccc2)c2ccccc21 [TAMETRALINE HYDROCHLORIDE]")
40
>>> test_result("CN[C@@H]1CC[C@@H](c2ccccc2)c2ccccc21 (stereo in doubt; 44) [TAMETRALINE]")
18
>>> test_result("CN[C@H]1CC[C@@H](c2cccc(C(F)(F)F)c2)c2ccccc21")
2550
>>> test_result("CN[C@@H]1CC[C@@H](c2ccccc2OC)c2ccccc21")
480
>>> test_result("CN[C@H]1CC[C@@H](c2cccc(OC)c2)c2ccccc21")
1400
>>> test_result("CN(C)[C@@H]1CC[C@@H](c2ccc(Cl)cc2)c2ccccc21")
130
>>> test_result("CCCCOc1ccc([C@@H]2CC[C@@H](NC)c3ccccc32)cc1")
1150
>>> test_result("CN[C@@H]1CC[C@@H](c2cccc(C(F)(F)F)c2)c2ccccc21")
260
>>> test_result("CN[C@H]1CC[C@@H](c2ccc(C(F)(F)F)cc2)c2ccccc21 (stereo in doubt; 54)")
9400
>>> test_result("CN[C@H]1CC[C@@H](c2ccc(C(F)(F)F)cc2)c2ccccc21")
9800
>>> test_result("CN[C@H]1CC[C@@H](c2ccc(C(F)(F)F)cc2)c2ccccc21 (stereo in doubt; 55)")
12000
>>> test_result("CN[C@@H]1CC[C@@H](c2cccc(OC)c2)c2ccccc21")
60
>>> test_result("CN[C@@H]1CC[C@@H](c2ccc(F)cc2)c2ccccc21")
30
>>> test_result("CN[C@H]1CC[C@@H](c2ccccc2)c2ccccc21")
1860
>>> test_result("CN(C)[C@@H]1CC[C@@H](c2cccc(C(F)(F)F)c2)c2ccccc21")
1400
>>> test_result("CN[C@H]1CC[C@@H](c2ccccc2)c2ccccc21 (stereo in doubt; 51)")
4200

---

- experimental system: Sodium-dependent dopamine transporter (Rattus norvegicus)
- Sequence (P23977 whole entry): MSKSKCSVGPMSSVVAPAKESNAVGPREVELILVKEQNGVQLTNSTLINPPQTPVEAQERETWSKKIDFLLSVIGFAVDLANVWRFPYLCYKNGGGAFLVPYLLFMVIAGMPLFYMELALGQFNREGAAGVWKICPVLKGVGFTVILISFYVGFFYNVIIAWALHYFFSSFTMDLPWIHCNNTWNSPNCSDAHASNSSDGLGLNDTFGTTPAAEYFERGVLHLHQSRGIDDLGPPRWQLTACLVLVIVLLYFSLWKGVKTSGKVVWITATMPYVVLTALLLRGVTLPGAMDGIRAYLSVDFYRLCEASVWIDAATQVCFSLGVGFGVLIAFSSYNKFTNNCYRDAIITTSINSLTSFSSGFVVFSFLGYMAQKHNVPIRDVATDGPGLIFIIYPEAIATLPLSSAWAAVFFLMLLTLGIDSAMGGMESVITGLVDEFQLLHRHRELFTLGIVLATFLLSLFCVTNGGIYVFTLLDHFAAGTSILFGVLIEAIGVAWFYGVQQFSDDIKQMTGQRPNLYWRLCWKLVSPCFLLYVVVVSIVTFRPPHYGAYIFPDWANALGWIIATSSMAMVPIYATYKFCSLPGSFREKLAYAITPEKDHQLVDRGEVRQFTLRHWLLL
- method notes: Inhibition of dopamine uptake in synaptosomal preparation in rat corpus striatum, using [3H]dopamine
Could you mark each record met if its IC50 falls strictly under 1 µM, and not met if it equals or exceeds it?

>>> group("CN[C@H]1CC[C@@H](c2ccc(C(F)(F)F)cc2)c2ccccc21")
"not met"
>>> group("CN[C@H]1CC[C@@H](c2ccccc2)c2ccccc21 (stereo in doubt; 50)")
"not met"
>>> group("CN[C@H]1CC[C@@H](c2ccc(C(F)(F)F)cc2)c2ccccc21 (stereo in doubt; 54)")
"not met"
>>> group("CN[C@H]1CC[C@@H](c2cccc(C(F)(F)F)c2)c2ccccc21")
"not met"
>>> group("CN[C@H]1CC[C@@H](c2ccc(Cl)c(C(F)(F)F)c2)c2ccccc21 (stereo in doubt; 60)")
"not met"
>>> group("CN(C)[C@H]1CC[C@@H](c2ccc(C(F)(F)F)cc2)c2ccccc21")
"not met"
>>> group("CN[C@H]1CC[C@@H](c2ccc(Oc3ccccc3)cc2)c2ccccc21")
"not met"
>>> group("CN[C@@H]1CC[C@@H](c2ccc(F)c(OC)c2)c2ccccc21")
"not met"
>>> group("CN[C@@H]1CC[C@@H](c2ccc(OC)cc2)c2ccccc21")
"met"
>>> group("CN[C@@H]1CC[C@@H](c2ccccc2)c2ccccc21 (stereo in doubt; 44) [TAMETRALINE]")
"met"
>>> group("CN[C@@H]1CC[C@@H](c2ccc(Br)cc2)c2ccccc21")
"met"
>>> group("CN(C)[C@@H]1CC[C@@H](c2ccccc2)c2ccccc21")
"met"
>>> group("CN[C@@H]1CC[C@@H](c2ccc(F)cc2)c2ccccc21")
"met"
>>> group("CN(C)[C@H]1CC[C@@H](c2ccc(Cl)cc2)c2ccccc21")
"not met"
>>> group("N[C@H]1CC[C@@H](c2ccc(Cl)c(Cl)c2)c2ccccc21")
"not met"
>>> group("CN[C@@H]1CC[C@@H](c2ccc(Oc3ccccc3)cc2)c2ccccc21")
"not met"
>>> group("CN[C@@H]1CC[C@@H](c2ccccc2OC)c2ccccc21")
"not met"
>>> group("CN[C@H]1CC[C@@H](c2ccc(Cl)cc2Cl)c2ccccc21")
"not met"
>>> group("CN[C@@H]1CC[C@@H](c2ccc(C(F)(F)F)cc2)c2ccccc21")
"not met"
>>> group("CN[C@H]1CC[C@@H](c2ccc(OC)cc2)c2ccccc21")
"not met"
>>> group("CN[C@H]1CC[C@@H](c2ccccc2)c2ccccc21")
"not met"
>>> group("CN(C)[C@@H]1CC[C@@H](c2ccc(Cl)c(Cl)c2)c2ccccc21")
"met"
